Numbers sourced from ChEMBL document CHEMBL3870332.

experiment: Binding affinity to tRNA (unknown origin) measured after 30 mins by fluorescence analysis
MEASURED_PARAMETER: Kd

The recorded Kd for entry `O=C(Nc1ccc(NC(=O)c2ccc(F)cc2)nc1)c1ccncc1` equals > 50 µM

---

assay: Binding affinity to r(GC)20 RNA (unknown origin) measured after 5 mins by fluorescence analysis
pKd: −log10 of the molar value.
MEASURED_PARAMETER: pKd

Lab book: pKd of `O=C(Nc1ccc(NC(=O)c2ccc(F)cc2)nc1)c1ccncc1` noted as < 4.52

---

experiment: Binding affinity to AT hairpin DNA (unknown origin) measured after 30 mins by fluorescence analysis
MEASURED_PARAMETER: Kd

Memo: `O=C(Nc1ccc(NC(=O)c2ccc(F)cc2)nc1)c1ccncc1` , reported Kd: > 50 µM
